Taken from patent US7074789B2.

Study System: AKT (Homo sapiens, UniProt Q9Y243)
Construct: Kinases are expressed as either kinase domains or full length constructs; made in house
Sequence (Q9Y243 whole entry, the tested form may be a part): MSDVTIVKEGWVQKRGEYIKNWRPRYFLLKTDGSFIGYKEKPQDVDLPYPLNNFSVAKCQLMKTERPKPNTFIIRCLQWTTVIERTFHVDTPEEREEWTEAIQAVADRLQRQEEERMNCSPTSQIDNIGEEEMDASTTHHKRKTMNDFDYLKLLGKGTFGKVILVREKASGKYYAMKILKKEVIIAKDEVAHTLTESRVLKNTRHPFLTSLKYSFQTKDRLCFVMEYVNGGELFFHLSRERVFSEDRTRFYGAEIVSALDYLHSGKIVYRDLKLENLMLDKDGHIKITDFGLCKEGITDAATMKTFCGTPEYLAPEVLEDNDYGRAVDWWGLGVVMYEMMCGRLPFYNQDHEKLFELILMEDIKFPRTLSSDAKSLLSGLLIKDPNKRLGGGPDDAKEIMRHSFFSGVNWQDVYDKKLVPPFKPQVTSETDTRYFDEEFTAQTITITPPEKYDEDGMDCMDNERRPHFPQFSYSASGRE
Assay Summary: Kinase inhibition assay (33P transfer), AKT
Assay type: biochemical
Condition Description: Table 2, kinase inhibition class; read-out: AKT3-1
Item-by-item account of IC50

(Q) // IC50 lookup, key: `CN(c1cccc(Cl)c1)c1ncnc(Nc2ccc3cn[nH]c3c2)n1`
(A) 9.95 to 12.8 µM

(Q) May I ask what IC50 has been recorded for `COC(=O)c1ccc(-c2cc(Nc3ncnc(Nc4cccc(C(N)=O)c4)n3)[nH]n2)cc1` ?
(A) > 10.5 µM

(Q) Find the recorded IC50 belonging to `Nc1ncnc(-n2c(N)nc3ccccc32)n1` and report it.
(A) 1.76 to 10.6 µM

(Q) What measured IC50 goes with `OCCCNc1cc(-c2ncnc(Nc3cccc(OC(F)(F)C(F)F)c3)n2)ccn1` ?
(A) > 10.3 µM

(Q) Which measured IC50 value corresponds to `COc1cc(Nc2ncnc(N3CCN(C(=O)OC(C)(C)C)CC3)n2)cc(OC)c1OC` ?
(A) > 10.1 µM

(Q) IC50 for `COc1cc(Nc2ncnc(-n3ccc4ccccc43)n2)cc(OC)c1OC` ?
(A) > 11.9 µM

(Q) Query (compound): `COc1cc(Nc2ncnc(-c3cccc(Cl)c3)n2)cc(OC)c1OC` ; field requested: IC50
(A) > 12.1 µM
